- test target: H3R (Homo sapiens, UniProt Q9Y5N1)
- Sequence (Q9Y5N1 whole entry): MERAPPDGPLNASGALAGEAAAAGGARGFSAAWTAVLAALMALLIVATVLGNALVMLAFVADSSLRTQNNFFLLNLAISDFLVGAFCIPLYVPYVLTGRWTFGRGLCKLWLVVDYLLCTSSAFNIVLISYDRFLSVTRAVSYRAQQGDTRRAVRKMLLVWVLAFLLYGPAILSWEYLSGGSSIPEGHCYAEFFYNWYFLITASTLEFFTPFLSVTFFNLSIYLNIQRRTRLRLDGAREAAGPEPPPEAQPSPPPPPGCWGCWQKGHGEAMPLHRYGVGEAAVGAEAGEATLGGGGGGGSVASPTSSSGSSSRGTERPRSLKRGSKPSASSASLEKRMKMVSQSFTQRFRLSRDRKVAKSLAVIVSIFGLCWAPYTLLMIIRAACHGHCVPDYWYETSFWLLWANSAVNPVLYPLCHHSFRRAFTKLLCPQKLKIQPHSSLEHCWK
- assay overview: CRE-driven luciferase reporter gene assay, H3R antagonistic activity
- measurement context: CRE luciferase assay, HEK-293 cells; Table 1
- Procedure: cAMP-response element (CRE) reporter gene assay has been extensively used to evaluate the efficacy of GPCR antagonists or agonists. […] In the assays, the antagonistic activities was positively correlated with the rise of the fluorescence value and indicated by the % antagonism. For the prominent compounds IC50 values were determined at additional assays. […]
Recorded IC50, one value per entry.
readout label: IC50

1. Cl.c1cc(-n2cnnc2)ccc1OCCN1CCCCC1 [Compound 3o] = 0.25 µM
2. c1ccc(-c2nncn2-c2ccc(OCCCN3CCCCC3)cc2)cc1 [Compound 3l] = 0.00781 µM
3. Cl.c1cc(-n2cnnc2)ccc1OCCCN1CCCC1 [Compound 3c] = 0.553 µM
4. c1cc(-n2cnnc2)ccc1OCCCN1CCCCC1 [Compound 3h] = 0.127 µM
5. Clc1ccc(-c2nncn2-c2ccc(OCCCN3CCCCC3)cc2)cc1 [Compound 3m] = 0.00592 µM
6. CCN(CC)CCCOc1ccc(-n2cnnc2)cc1.Cl [Compound 3a] = 2.99 µM
7. Cl.c1cc(-n2cnnc2)ccc1OCCCCN1CCCCC1 [Compound 3p] = 3.44 µM
8. Cc1nncn1-c1ccc(OCCCN2CCCCC2)cc1.Cl [Compound 3k] = 0.021 µM

----------
- test target: H3R (Homo sapiens, UniProt Q9Y5N1)
- Construct: expressed in transfected cells
- assay overview: CRE-driven luciferase reporter gene assay, H3R antagonistic activity
- Assay type: cell-based
- measurement context: 100 nM compound; HEK-293 cells expressing human H3R; mean ± SD of three experiments
Recorded % Antagonism 100 nM, one value per entry.
readout label: % Antagonism 100 nM (%)

1. Cl.c1cc(-n2cnnc2)ccc1OCCCCN1CCCCC1 [Compound 3p] = 25.00
2. Clc1ccc(-c2nncn2-c2ccc(OCCCN3CCCCC3)cc2)cc1 [Compound 3m] = 201.12
3. CCCN(CCC)CCCOc1ccc(-n2cnnc2)cc1.Cl [Compound 3b] = 13.24
4. O=C(c1ccc(OCCCc2cnc[nH]2)cc1)C1CC1 [CPX, ciproxifan, reference compound] = 33.96
5. c1cc(-n2cnnc2)ccc1OCCCCCN1CCCCC1 [Compound 3q] = 1.88
6. Cl.c1cc(-n2cnnc2)ccc1OCCCN1CCCC1 [Compound 3c] = 32.23
7. Cl.Cl.c1cc(-n2cnnc2)ccc1OCCCN1CCNCC1 [Compound 3d] = 11.33
8. Cc1nncn1-c1ccc(OCCCN2CCCCC2)cc1.Cl [Compound 3k] = 133.91
9. Cl.c1cc(-n2cnnc2)ccc1OCCN1CCCCC1 [Compound 3o] = 45.04
10. c1ccc(N2CCN(CCCOc3ccc(-n4cnnc4)cc3)CC2)cc1 [Compound 3f] = 9.96
11. CCN(CC)CCCOc1ccc(-n2cnnc2)cc1.Cl [Compound 3a] = 49.85
12. Clc1ccc(CCCOCCCN2CCCCC2)cc1 [PIT, Pitolisant, reference compound] = 54.16
13. c1ccc(-c2ccc(-c3nncn3-c3ccc(OCCCN4CCCCC4)cc3)cc2)cc1 [Compound 3n] = 1.03
14. c1cc(-n2cnnc2)ccc1OCCCN1CCCCC1 [Compound 3h] = 10.56
15. c1ccc(C2CCN(CCCOc3ccc(-n4cnnc4)cc3)CC2)cc1 [Compound 3i] = 5.19
16. c1ccc(-c2nncn2-c2ccc(OCCCN3CCCCC3)cc2)cc1 [Compound 3l] = 148.62
17. CN1CCN(CCCOc2ccc(-n3cnnc3)cc2)CC1.Cl [Compound 3e] = 9.86
18. Cl.c1cc(-n2cnnc2)ccc1OCCCN1CCOCC1 [Compound 3g] = −0.76
19. NC(=O)C1CCN(CCCOc2ccc(-n3cnnc3)cc2)CC1 [Compound 3j] = −4.2
